test: Effect of pH and cyclodextrins on the fraction of the open form (diazepine ring-opening) of benzodiazepines; type: physicochemical; conditions: 10% (w/v) SBEβCD, pH 4, approx. 23° C.
parameter: Fraction open
Number only, please.

Sample answers from the record:
1) Cc1ncc2n1-c1ccc(Cl)cc1C(c1ccccc1F)=NC2 : 0.11
2) Cc1nnc2n1-c1ccc(Cl)cc1C(c1ccccc1)=NC2 : 0.33
3) CN1C(=O)CN=C(c2ccccc2)c2cc(Cl)ccc21 : 0.22

// next entry
Reported Fraction open ( `Cc1nnc2n1-c1ccc(Cl)cc1C(c1ccccc1Cl)=NC2` ) = 0.00

###

# reported Fraction open; entries follow
test: Effect of pH and cyclodextrins on the fraction of the open form (diazepine ring-opening) of benzodiazepines; type: physicochemical; settings: 10% (w/v) SBEβCD, pH 3, approx. 23° C.
In your answer, state the number alone without any accompanying words.

Recorded results for 3 compounds are shown here.
1. Cc1nnc2n1-c1ccc(Cl)cc1C(c1ccccc1Cl)=NC2 : 0.25
2. CN1C(=O)CN=C(c2ccccc2)c2cc(Cl)ccc21 : 0.56
3. Cc1nnc2n1-c1ccc(Cl)cc1C(c1ccccc1)=NC2 : 0.84

Read the next record carefully.
Entry `Cc1ncc2n1-c1ccc(Cl)cc1C(c1ccccc1F)=NC2` — recorded Fraction open = 0.39
